Known SPOT peptide array binding signal intensity of a selection of binders
# TARGET_OR_SYSTEM: CaMyo5
# ASSAY_OVERVIEW: SPOT peptide array binding signal intensity (averaged, normalized) (arbitrary units (background-subtracted, floor 0; scale differs between SH3 domains)); higher = stronger binding of the SH3 domain to the peptide
Just the number.

Which SPOT peptide array binding signal intensity reading was recorded for the binder VKPRQLFPIPLNKVD ?
1

Please report the recorded SPOT peptide array binding signal intensity for SSSSSPPPLPTRRDH .
6.5

Form field: reported SPOT peptide array binding signal intensity of VQKRKLPLPGSIASA
0.5

For KIRRSSLMIPNPQQF , what is its reported SPOT peptide array binding signal intensity?
20.5

For VFQFQMPTTPISTKM , what is its reported SPOT peptide array binding signal intensity?
92.8

Entry under review: QLMKNLPKIPLLNDI . Reported SPOT peptide array binding signal intensity?
83.8
